Biological target: EGFR (Homo sapiens)
Construct: Add 7 ug A431 cell lysate per well (EGFR source); endogenous in cells; host or cells: A431
Sequence (P00533 25-1210): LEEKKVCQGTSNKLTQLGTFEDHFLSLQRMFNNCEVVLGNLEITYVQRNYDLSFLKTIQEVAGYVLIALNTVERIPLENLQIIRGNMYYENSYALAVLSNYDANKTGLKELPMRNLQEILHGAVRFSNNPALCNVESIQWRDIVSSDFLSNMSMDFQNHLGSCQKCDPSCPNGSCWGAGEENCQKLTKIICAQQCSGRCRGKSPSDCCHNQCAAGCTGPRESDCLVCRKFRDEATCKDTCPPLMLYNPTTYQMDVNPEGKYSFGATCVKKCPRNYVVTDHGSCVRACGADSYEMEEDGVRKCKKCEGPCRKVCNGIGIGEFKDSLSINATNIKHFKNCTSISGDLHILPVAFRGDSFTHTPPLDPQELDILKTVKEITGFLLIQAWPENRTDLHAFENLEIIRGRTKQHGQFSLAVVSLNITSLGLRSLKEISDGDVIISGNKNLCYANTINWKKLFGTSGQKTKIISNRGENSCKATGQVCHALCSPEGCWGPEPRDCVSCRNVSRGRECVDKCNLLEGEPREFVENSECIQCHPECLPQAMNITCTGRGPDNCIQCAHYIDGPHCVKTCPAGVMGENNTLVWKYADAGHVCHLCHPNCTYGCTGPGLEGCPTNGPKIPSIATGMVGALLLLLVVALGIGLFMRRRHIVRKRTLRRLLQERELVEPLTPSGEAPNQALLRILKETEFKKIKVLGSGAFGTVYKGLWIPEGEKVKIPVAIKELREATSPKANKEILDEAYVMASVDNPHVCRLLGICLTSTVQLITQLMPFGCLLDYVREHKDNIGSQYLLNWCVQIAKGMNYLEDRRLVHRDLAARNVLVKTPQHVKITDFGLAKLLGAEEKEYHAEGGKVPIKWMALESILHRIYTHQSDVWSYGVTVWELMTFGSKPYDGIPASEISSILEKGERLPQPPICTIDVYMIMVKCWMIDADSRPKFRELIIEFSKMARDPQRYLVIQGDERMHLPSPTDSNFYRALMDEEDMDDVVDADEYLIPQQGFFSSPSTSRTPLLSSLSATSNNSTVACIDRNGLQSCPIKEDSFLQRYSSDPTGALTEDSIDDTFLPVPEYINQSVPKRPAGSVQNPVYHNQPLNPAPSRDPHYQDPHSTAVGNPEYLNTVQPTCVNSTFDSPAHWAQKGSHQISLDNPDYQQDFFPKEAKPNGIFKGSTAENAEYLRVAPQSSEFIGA
Test: EGFR ELISA assay (in vitro kinase activity, EGFR captured from A431 cell lysate)
Type: biochemical
Parameters: concentration or dose not given beside the values
Overview of reported Biochem EGFR %Inhibition across a group of molecules:
Metric name: Biochem EGFR %Inhibition (%)

>>> quantitative_readout("O=C1Nc2ccc(S(=O)(=O)Nc3ccc(C(F)(F)F)cc3)cc2C1=Cc1cc2ccccc2nc1Cl")
6.2
>>> quantitative_readout("CCc1c(C)[nH]c(C=C2C(=O)Nc3ccc(I)cc32)c1C")
35.9
>>> quantitative_readout("CCOc1cc(C=C2C(=O)Nc3ccc(CCCl)cc32)ccc1O")
-19.7
>>> quantitative_readout("O=C1Nc2ccc(I)cc2C1=Cc1ccc(O)c(Br)c1")
34.9
>>> quantitative_readout("CNS(=O)(=O)c1ccc2c(c1)C(=Cc1ccc(O)c(C)c1)C(=O)N2")
-7.4
>>> quantitative_readout("CN1C(=O)C(=C2C(=O)Nc3ccc(S(=O)(=O)N4CCOCC4)cc32)c2ccccc21")
7.9
>>> quantitative_readout("COc1cc(Br)c(O)c(C=C2C(=O)Nc3ccc(CCCl)cc32)c1")
57.3
>>> quantitative_readout("Cc1cc2occ(C=C3C(=O)Nc4ccc(S(=O)(=O)Nc5ccc(C(F)(F)F)cc5)cc43)c(=O)c2cc1C")
10.4
>>> quantitative_readout("CCc1ccc(C=C2C(=O)Nc3ccc(CCCl)cc32)s1")
6.0
>>> quantitative_readout("O=C1Nc2c(Br)cc(Br)cc2C1=Cc1ccc([N+](=O)[O-])o1")
21.2
>>> quantitative_readout("CCc1ccc(C=C2C(=O)Nc3ccc(I)cc32)o1")
76.2
>>> quantitative_readout("COc1cccc(C=C2C(=O)Nc3ccc(Br)c(C)c32)c1O")
5.9
>>> quantitative_readout("O=C1Nc2ccc(I)cc2C1=Cc1ccncc1")
51.6
>>> quantitative_readout("Cc1c(Br)ccc2c1C(=Cc1ccccc1Br)C(=O)N2")
-4.0
>>> quantitative_readout("COc1cc(C)cc(O)c1C=C1C(=O)Nc2ccc(Br)c(C)c21")
-11.5
>>> quantitative_readout("O=C1Nc2ccc(CCCl)cc2C1=Cc1cc(Br)ccc1O")
38.7
>>> quantitative_readout("CCc1ccc(C=C2C(=O)Nc3ccc(Br)c(C)c32)o1")
13.8
>>> quantitative_readout("O=C1Nc2ccc(CCCl)cc2C1=Cc1ccco1")
-7.5
>>> quantitative_readout("COc1c(O)ccc(C=C2C(=O)Nc3ccc(I)cc32)c1[N+](=O)[O-]")
12.5
>>> quantitative_readout("O=C1Nc2c(Br)cc(Br)cc2C1=Cc1cc(Br)cc(Br)c1O")
15.2

---

Molecular target: EGFR (Homo sapiens)
Construct: Add 7 ug A431 cell lysate per well (EGFR source); endogenous in cells; host or cells: A431
Assay: EGFR ELISA assay (in vitro kinase activity, EGFR captured from A431 cell lysate)
Assay type: biochemical
Parameters: concentration or dose not given beside the values
Overview of reported Biochem EGFR %Inhibition across a group of molecules:
Metric name: Biochem EGFR %Inhibition (%)

>>> quantitative_readout("O=C1Nc2ccc(S(=O)(=O)Nc3ccc(C(F)(F)F)cc3)cc2C1=Cc1ccc(O)c(O)c1")
73.0
>>> quantitative_readout("O=C1Nc2ccc(I)cc2C1=Cc1cc(O)c2c(c1O)CCCC2")
72.4
>>> quantitative_readout("COC(=O)c1[nH]c(C)c(C=C2C(=O)Nc3ccc(Br)c(C)c32)c1C(=O)OC")
-4.9
>>> quantitative_readout("Cc1ccc(C=C2C(=O)Nc3c(Br)cc(Br)cc32)s1")
20.2
>>> quantitative_readout("O=C1Nc2ccc(S(=O)(=O)Nc3ccc(C(F)(F)F)cc3)cc2C1=Cc1ccncc1")
29.6
>>> quantitative_readout("O=C1Nc2ccc(CCCl)cc2C1=Cc1ccc[nH]1")
24.9
>>> quantitative_readout("CNS(=O)(=O)c1ccc2c(c1)C(=Cc1[nH]c(Cl)c(CC(=O)OC)c1C(=O)OC)C(=O)N2")
4.3
>>> quantitative_readout("O=C1Nc2ccc(S(=O)(=O)N3CCOCC3)cc2C1=Cc1ccc(F)cc1C(F)(F)F")
-66.3
>>> quantitative_readout("CNS(=O)(=O)c1ccc2c(c1)C(=Cc1cc(Br)cc(Br)c1O)C(=O)N2")
51.1
>>> quantitative_readout("O=C1Nc2ccc(S(=O)(=O)Nc3ccc(C(F)(F)F)cc3)cc2C1=Cc1ccc(O)cc1")
-18.4
>>> quantitative_readout("Cc1cc2occ(C=C3C(=O)Nc4ccc(Br)c(C)c43)c(=O)c2cc1C")
9.1
>>> quantitative_readout("COc1ccc2[nH]cc(C=C3C(=O)Nc4c(Br)cc(Br)cc43)c2c1")
21.9
>>> quantitative_readout("CC(C)(C)c1cc(C=C2C(=O)Nc3ccc(S(=O)(=O)N4CCOCC4)cc32)cc(Br)c1O")
7.5
>>> quantitative_readout("CNS(=O)(=O)c1ccc2c(c1)C(=Cc1cccn1-c1ccc(Cl)cc1)C(=O)N2")
-15.3
>>> quantitative_readout("CCN(CC)c1ccc(C=C2C(=O)Nc3ccc(I)cc32)c(O)c1")
17.8
>>> quantitative_readout("Cc1c(Br)ccc2c1C(=Cc1cc3c(cc1Cl)OCO3)C(=O)N2")
5.6
>>> quantitative_readout("CNS(=O)(=O)c1ccc2c(c1)C(=Cc1ccc(N3CCOCC3)cc1)C(=O)N2")
20.0
>>> quantitative_readout("Cc1cc(O)cc(O)c1C=C1C(=O)Nc2ccc(CCCl)cc21")
-9.5

---

Tested on: MET
Assay: MET biochemical kinase assay
Design: species or system human; concentration or dose not given beside the values
Metric name: Met Kinase % Inhibition (%)

>>> quantitative_readout("COc1cc(OC)c(OC)cc1C=C1C(=O)Nc2ccc(CCCl)cc21")
43.2
>>> quantitative_readout("O=C1Nc2ccc(S(=O)(=O)N3CCOCC3)cc2C1=Cc1cc([N+](=O)[O-])cc(CCl)c1O")
80.3
>>> quantitative_readout("Cc1c(Br)ccc2c1C(=Cc1cccc(Br)c1)C(=O)N2")
43.8
>>> quantitative_readout("O=C1Nc2ccc(S(=O)(=O)Nc3ccc(C(F)(F)F)cc3)cc2C1=Cc1ccc2ccccc2c1O")
87.7

---

Test system: MET
Test: MET biochemical kinase assay
Set-up: species or system human; concentration or dose not given beside the values
Label TRUE when Met Kinase % Inhibition is at or above 40%; anything below gets FALSE.

>>> category("O=C1Nc2c(Br)cc(Br)cc2C1=Cc1sccc1Br [10725/A02]")
"TRUE"
>>> category("O=C1Nc2ccc(S(=O)(=O)Nc3ccc(C(F)(F)F)cc3)cc2C1=Cc1ccco1 [10718/E10]")
"TRUE"
>>> category("Cc1c(Br)ccc2c1C(=Cc1ccc(O)c(O)c1O)C(=O)N2 [10723/C02]")
"TRUE"
>>> category("O=C1Nc2ccc(S(=O)(=O)N3CCOCC3)cc2C1=Cc1ccc(N2CCOCC2)cc1 [10725/F08]")
"TRUE"
>>> category("Cc1cn(C)cc1C=C1C(=O)Nc2ccc(S(=O)(=O)Nc3ccc(C(F)(F)F)cc3)cc21 [10726/E06]")
"FALSE"
>>> category("COc1cc(C=C2C(=O)Nc3ccc(Br)c(C)c32)cc(OC)c1OC [10730/C04]")
"TRUE"
>>> category("O=C1Nc2ccc(S(=O)(=O)Nc3ccc(C(F)(F)F)cc3)cc2C1=Cc1cc(O)c(O)c(Br)c1 [10723/E04]")
"TRUE"
>>> category("COC1CC(C=C2C(=O)Nc3c(Br)cc(Br)cc32)C(OC)O1 (stereo not shown) [10730/A10]")
"TRUE"
>>> category("COc1cc(Br)c(O)c(C=C2C(=O)Nc3ccc(S(=O)(=O)N4CCOCC4)cc32)c1 [10718/F03]")
"TRUE"
>>> category("CNS(=O)(=O)c1ccc2c(c1)C(=Cc1cc(C(C)(C)C)c(O)c(C(C)(C)C)c1)C(=O)N2 [10721/D11]")
"FALSE"
>>> category("COc1c(C(C)C)cc(C=C2C(=O)Nc3ccc(S(=O)(=O)N4CCOCC4)cc32)cc1C(C)C [10732/F03]")
"TRUE"
>>> category("O=C1Nc2ccc(S(=O)(=O)Nc3ccc(C(F)(F)F)cc3)cc2C1=Cc1cc2c3c(c1O)CCCN3CCC2 [10724/E05]")
"TRUE"
>>> category("N#Cc1ccc(C=C2C(=O)Nc3ccc(CCCl)cc32)cc1 [10727/G09]")
"FALSE"
>>> category("COc1ccc(O)c(C=C2C(=O)Nc3ccc(CCCl)cc32)c1 [10720/G10]")
"TRUE"
>>> category("CC(=O)Oc1ccc(C=C2C(=O)Nc3ccc(S(=O)(=O)Nc4ccc(C(F)(F)F)cc4)cc32)cc1OC(C)=O [10723/E05]")
"TRUE"
>>> category("Cc1c(Br)ccc2c1C(=Cc1ccc(Cl)s1)C(=O)N2 [10721/C07]")
"FALSE"
>>> category("CCOc1ccc(C=C2C(=O)Nc3ccc(S(=O)(=O)Nc4ccc(C(F)(F)F)cc4)cc32)cc1OC [10719/E02]")
"FALSE"
>>> category("O=C1Nc2c(Br)cc(Br)cc2C1=Cc1ccc(O)c(Br)c1 [10734/A09]")
"TRUE"
>>> category("COc1ccc(OC)c(C=C2C(=O)Nc3ccc(S(=O)(=O)NN4CCOCC4)cc32)c1 [10728/F02]")
"FALSE"
>>> category("COc1c([N+](=O)[O-])cc(C=C2C(=O)Nc3ccc(S(=O)(=O)Nc4ccc(C(F)(F)F)cc4)cc32)cc1C(C)(C)C [10733/E03]")
"FALSE"
>>> category("O=C1Nc2ccc(S(=O)(=O)N3CCOCC3)cc2C1=Cc1ccc(O)c(O)c1O [10723/F02]")
"TRUE"
>>> category("Cc1cc2occ(C=C3C(=O)Nc4ccc(Br)c(C)c43)c(=O)c2cc1C [10731/C03]")
"FALSE"
>>> category("O=C1Nc2ccc(S(=O)(=O)N3CCOCC3)cc2C1=Cc1ccc([N+](=O)[O-])cc1 [10734/F06]")
"TRUE"
>>> category("CNS(=O)(=O)c1ccc2c(c1)C(=Cc1cc(C)c(O)c(C)c1)C(=O)N2 [10722/D07]")
"TRUE"
>>> category("CNS(=O)(=O)c1ccc2c(c1)C(=Cc1ccc(N(C)C)c3ccccc13)C(=O)N2 [10724/D02]")
"FALSE"
>>> category("O=C1Nc2c(Br)cc(Br)cc2C1=Cc1ccc(Cl)s1 [10721/A07]")
"FALSE"
>>> category("O=C1Nc2ccc(S(=O)(=O)Nc3ccc(C(F)(F)F)cc3)cc2C1=Cc1ccc[nH]1 [10717/E09]")
"FALSE"
>>> category("O=C1Nc2ccc(I)cc2C1=Cc1c(F)cc(F)cc1F [10720/B02]")
"FALSE"
>>> category("COc1c([N+](=O)[O-])cc(C=C2C(=O)Nc3ccc(I)cc32)cc1C(C)(C)C [10733/B03]")
"TRUE"
>>> category("COc1c([N+](=O)[O-])cc(C=C2C(=O)Nc3ccc(Br)c(C)c32)cc1C(C)(C)C [10733/C03]")
"FALSE"
>>> category("COc1ccc(Br)c(C=C2C(=O)Nc3ccc(I)cc32)c1O [10725/B03]")
"TRUE"
>>> category("O=C1Nc2c(Br)cc(Br)cc2C1=Cc1ccc(O)cc1 [10719/A07]")
"TRUE"
>>> category("Cc1c(Br)ccc2c1C(=Cc1ccc(N(C)C)cc1)C(=O)N2 [10719/C08]")
"TRUE"

Recorded values, source patent EP1247803A2.
